Every entry's value here was drawn from ChEMBL document CHEMBL1158355.

Tested on: Enterococcus faecalis
Assay: Antibacterial activity against Streptococcus faecalis at 20 mg/mL by agar diffusion method
Format: functional

[
  {
    "compound": "COc1ccc(-c2cc(Cc3ccccc3OC)/c(=N/N=C/c3ccc(OC(C)=O)c(OC)c3)[nH]n2)cc1",
    "unit-tag": "mm",
    "diameter of the inhibition zone (DIZ)": 13
  },
  {
    "compound": "COc1ccc(-c2cc(Cc3ccccc3OC)/c(=N\\N=C\\c3ccc(OCCOc4ccc(C=O)cc4OC)c(OC)c3)[nH]n2)cc1",
    "unit-tag": "mm",
    "diameter of the inhibition zone (DIZ)": 10
  },
  {
    "compound": "CN(C)[C@@H]1C(O)=C(C(N)=O)C(=O)[C@@]2(O)C(O)=C3C(=O)c4c(O)cccc4[C@@](C)(O)[C@H]3C[C@@H]12 [TETRACYCLINE]",
    "unit-tag": "mm",
    "diameter of the inhibition zone (DIZ)": 26
  },
  {
    "compound": "COc1ccc(-c2cc(Cc3ccccc3OC)/c(=N\\N=C\\C(OC(C)=O)C(OC(C)=O)C(OC(C)=O)C(COC(C)=O)OC(C)=O)[nH]n2)cc1 (configuration not stated)",
    "unit-tag": "mm",
    "diameter of the inhibition zone (DIZ)": 14
  },
  {
    "compound": "COc1ccccc1Cc1cc(-c2ccc(C)cc2)n[nH]\\c1=N/N=C(C)/C(C)=N/N=c1/[nH]nc(-c2ccc(C)cc2)cc1Cc1ccccc1OC",
    "unit-tag": "mm",
    "diameter of the inhibition zone (DIZ)": 13
  },
  {
    "compound": "COc1ccccc1Cc1cc(-c2ccccc2)n[nH]/c1=N/N=C/c1cc(OC)c(OCCOc2c(OC)cc(C=O)cc2OC)c(OC)c1",
    "unit-tag": "mm",
    "diameter of the inhibition zone (DIZ)": 13
  },
  {
    "compound": "COc1ccc(-c2cc(Cc3ccccc3OC)/c(=N/N=C/C(O)C(O)C(O)CO)[nH]n2)cc1 (configuration not stated)",
    "unit-tag": "mm",
    "diameter of the inhibition zone (DIZ)": 12
  }
]

----------
# key: entry, value: diameter of the inhibition zone (DIZ)
System: Pseudomonas aeruginosa
Assay: Antibacterial activity against Pseudomonas aeruginosa at 20 mg/mL by agar diffusion method
Type: functional

[
  {
    "compound": "COc1ccccc1Cc1cc(-c2ccccc2)n[nH]/c1=N/N=C/c1cc(OC)c(OCCOc2c(OC)cc(C=O)cc2OC)c(OC)c1",
    "unit-tag": "mm",
    "diameter of the inhibition zone (DIZ)": 14
  },
  {
    "compound": "COc1ccccc1Cc1cc(-c2ccccc2)n[nH]/c1=N\\N=C(/C)c1ccccc1",
    "unit-tag": "mm",
    "diameter of the inhibition zone (DIZ)": 12
  },
  {
    "compound": "COc1ccccc1Cc1cc(-c2ccccc2)n[nH]/c1=N\\N=C(C)C",
    "unit-tag": "mm",
    "diameter of the inhibition zone (DIZ)": 15
  },
  {
    "compound": "CN(C)[C@@H]1C(O)=C(C(N)=O)C(=O)[C@@]2(O)C(O)=C3C(=O)c4c(O)cccc4[C@@](C)(O)[C@H]3C[C@@H]12 [TETRACYCLINE]",
    "unit-tag": "mm",
    "diameter of the inhibition zone (DIZ)": 24
  },
  {
    "compound": "COc1ccc(-c2cc(Cc3ccccc3OC)/c(=N\\N=C\\C(OC(C)=O)C(OC(C)=O)C(OC(C)=O)C(COC(C)=O)OC(C)=O)[nH]n2)cc1 (stereo not drawn)",
    "unit-tag": "mm",
    "diameter of the inhibition zone (DIZ)": 13
  },
  {
    "compound": "COc1ccccc1Cc1cc(-c2ccccc2)n[nH]/c1=N\\N=C(c1ccccc1)c1ccccc1",
    "unit-tag": "mm",
    "diameter of the inhibition zone (DIZ)": 13
  },
  {
    "compound": "COc1ccc(-c2cc(Cc3ccccc3OC)/c(=N/N=C(\\c3ccccc3)c3ccccc3C(=O)O)[nH]n2)cc1",
    "unit-tag": "mm",
    "diameter of the inhibition zone (DIZ)": 17
  },
  {
    "compound": "COc1ccc(-c2cc(Cc3ccccc3OC)/c(=N/N=C/c3ccc(O)c(OC)c3)[nH]n2)cc1",
    "unit-tag": "mm",
    "diameter of the inhibition zone (DIZ)": 13
  },
  {
    "compound": "COc1ccccc1Cc1cc(-c2ccc(Cl)cc2)n[nH]/c1=N\\N=C\\C(O)C(O)C(O)CO (stereo not drawn)",
    "unit-tag": "mm",
    "diameter of the inhibition zone (DIZ)": 15
  },
  {
    "compound": "COc1ccc(-c2cc(Cc3ccccc3OC)/c(=N/N=C/c3ccc(OC(C)=O)c(OC)c3)[nH]n2)cc1",
    "unit-tag": "mm",
    "diameter of the inhibition zone (DIZ)": 12
  },
  {
    "compound": "COc1ccccc1Cc1cc(-c2ccccc2)n[nH]/c1=N/N=C/c1ccc(OCCOc2ccc(C=O)cc2)cc1",
    "unit-tag": "mm",
    "diameter of the inhibition zone (DIZ)": 13
  },
  {
    "compound": "COc1ccccc1Cc1cc(-c2ccc(C)cc2)n[nH]\\c1=N/N=C(C)/C(C)=N/N=c1/[nH]nc(-c2ccc(C)cc2)cc1Cc1ccccc1OC",
    "unit-tag": "mm",
    "diameter of the inhibition zone (DIZ)": 14
  },
  {
    "compound": "COc1ccc(-c2cc(Cc3ccccc3OC)/c(=N\\N=C\\c3ccc(OCCOc4ccc(C=O)cc4OC)c(OC)c3)[nH]n2)cc1",
    "unit-tag": "mm",
    "diameter of the inhibition zone (DIZ)": 10
  },
  {
    "compound": "COc1ccc(-c2cc(Cc3ccccc3OC)/c(=N/N=C/C(O)C(O)C(O)CO)[nH]n2)cc1 (stereo not drawn)",
    "unit-tag": "mm",
    "diameter of the inhibition zone (DIZ)": 11
  },
  {
    "compound": "COc1ccc(-c2cc(Cc3ccccc3OC)/c(=N/N=C/C(O)C(O)C(O)C(O)CO)[nH]n2)cc1 (stereo not drawn)",
    "unit-tag": "mm",
    "diameter of the inhibition zone (DIZ)": 14
  },
  {
    "compound": "COc1ccccc1Cc1cc(-c2ccc(C)cc2)n[nH]/c1=N/N=C/C(OC(C)=O)C(OC(C)=O)C(COC(C)=O)OC(C)=O (stereo not drawn)",
    "unit-tag": "mm",
    "diameter of the inhibition zone (DIZ)": 12
  },
  {
    "compound": "COc1ccc(-c2cc(Cc3ccccc3OC)/c(=N/N=C(\\C)C(C)=O)[nH]n2)cc1",
    "unit-tag": "mm",
    "diameter of the inhibition zone (DIZ)": 13
  },
  {
    "compound": "COc1ccccc1Cc1cc(-c2ccc(Cl)cc2)n[nH]/c1=N/N=C/c1ccc(OCCOc2ccc(C=O)cc2OC)c(OC)c1",
    "unit-tag": "mm",
    "diameter of the inhibition zone (DIZ)": 13
  }
]

----------
# key: entry, value: diameter of the inhibition zone (DIZ)
Tested on: Enterococcus faecalis
Test: Antibacterial activity against Streptococcus faecalis at 20 mg/mL by agar diffusion method
Format: functional

[
  {
    "compound": "COc1ccccc1Cc1cc(-c2ccccc2)n[nH]/c1=N\\N=C(/C)c1ccccc1",
    "target-system": "Enterococcus faecalis",
    "diameter of the inhibition zone (DIZ) [mm]": 13
  },
  {
    "compound": "COc1ccccc1Cc1cc(-c2ccc(C)cc2)n[nH]/c1=N/N=C/C(OC(C)=O)C(OC(C)=O)C(COC(C)=O)OC(C)=O (stereo unspecified)",
    "target-system": "Enterococcus faecalis",
    "diameter of the inhibition zone (DIZ) [mm]": 13
  },
  {
    "compound": "COc1ccccc1Cc1cc(-c2ccccc2)n[nH]/c1=N/N=C/c1ccc(OCCOc2ccc(C=O)cc2)cc1",
    "target-system": "Enterococcus faecalis",
    "diameter of the inhibition zone (DIZ) [mm]": 12
  },
  {
    "compound": "COc1ccccc1Cc1cc(-c2ccc(Cl)cc2)n[nH]/c1=N/N=C/c1ccc(OCCOc2ccc(C=O)cc2OC)c(OC)c1",
    "target-system": "Enterococcus faecalis",
    "diameter of the inhibition zone (DIZ) [mm]": 12
  },
  {
    "compound": "COc1ccc(-c2cc(Cc3ccccc3OC)/c(=N/N=C/c3ccc(O)c(OC)c3)[nH]n2)cc1",
    "target-system": "Enterococcus faecalis",
    "diameter of the inhibition zone (DIZ) [mm]": 12
  },
  {
    "compound": "COc1ccccc1Cc1cc(-c2ccccc2)n[nH]/c1=N\\N=C(C)C",
    "target-system": "Enterococcus faecalis",
    "diameter of the inhibition zone (DIZ) [mm]": 16
  },
  {
    "compound": "COc1ccc(-c2cc(Cc3ccccc3OC)/c(=N/N=C(\\C)C(C)=O)[nH]n2)cc1",
    "target-system": "Enterococcus faecalis",
    "diameter of the inhibition zone (DIZ) [mm]": 13
  },
  {
    "compound": "COc1ccc(-c2cc(Cc3ccccc3OC)/c(=N/N=C/C(O)C(O)C(O)C(O)CO)[nH]n2)cc1 (stereo unspecified)",
    "target-system": "Enterococcus faecalis",
    "diameter of the inhibition zone (DIZ) [mm]": 15
  },
  {
    "compound": "COc1ccccc1Cc1cc(-c2ccccc2)n[nH]/c1=N\\N=C(c1ccccc1)c1ccccc1",
    "target-system": "Enterococcus faecalis",
    "diameter of the inhibition zone (DIZ) [mm]": 13
  },
  {
    "compound": "COc1ccc(-c2cc(Cc3ccccc3OC)/c(=N/N=C(\\c3ccccc3)c3ccccc3C(=O)O)[nH]n2)cc1",
    "target-system": "Enterococcus faecalis",
    "diameter of the inhibition zone (DIZ) [mm]": 17
  },
  {
    "compound": "COc1ccccc1Cc1cc(-c2ccc(Cl)cc2)n[nH]/c1=N\\N=C\\C(O)C(O)C(O)CO (stereo unspecified)",
    "target-system": "Enterococcus faecalis",
    "diameter of the inhibition zone (DIZ) [mm]": 17
  }
]
